B1: tRNA (parent)
chain: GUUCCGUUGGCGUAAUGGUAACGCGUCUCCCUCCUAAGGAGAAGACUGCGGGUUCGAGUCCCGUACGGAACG

variants of: B1; assay: yeast fitness relative to wild type (ratio to wild type); higher = fitter; tRNA-Arg(CCU), competitive growth, 37 C, YPD
This sample holds only a part of the variants without activity.
readout.type: yeast fitness

>>> reported("GUUCCGUUGGCGUAAUGGUAACGCGUCUCGGUCCUAAGGAGAGGACUGCGGGUUCCAGUCCCGUACGGAACG")
"≤ 0.5"
>>> reported("GUUCCGUUGGCGUAAUGGUAAGGCGUCUCGCUCCUAAGGAGAAGACCGCGGGUUCGAGUCCCGUACGGAUCG")
"≤ 0.5"
>>> reported("GUUCCGUUGGCGUAAUGGUAACGCGUCUCCCUCCUAAGGAAAAGACUGCGGGUUCGUGUACCGUACGCAACG")
"≤ 0.5"
>>> reported("GUUCCGUUGGCGUAAUAGUAACGCGUCUCCCUCCUAAGGAGAAGACUGCGGGUACGAGUCCCGUACGGAGCG")
"≤ 0.5"
>>> reported("GUUCCGUUGGCGUUAUGGUAACGCGUCUCCCUCCUAAGGAGAUGACUGCGGGUUCGAGACCCGUACGGAACG")
"≤ 0.5"
>>> reported("GUUCCGUUGGCGUAACGCUAACGCGUCUCCCUCCUAAGGAGGAGACUGCGGGUUCGAGUCCCGUACGGAACG")
"≤ 0.5"
>>> reported("GUUCCGUUGGCGUAAUGGUAACGCGUCUCCCUCCUAAGGAGAGGACAGCGGGAUCGAGUCCCGUACGGAACG")
"≤ 0.5"
>>> reported("GUUCCGUUGGCGUAAUGGUAACGCGUCUCCCUCCUAAGGAGAAGACUGCGCGUUCGAGUCCCGUGCGGAACG")
0.593
>>> reported("GUUGCGUUGGCGUAAUGGUAACGUGUCUCCCUCCCAAGGAGAAGACUGCGGGUUCGAGUCCCGUAUGGAACG")
0.559
>>> reported("GUUCCGCUGGCGUAAUGGUAACGCGUCUGCCUCCUAAGGAGAAGCCUGCGGGUUCGAGUCCGGUCCGGAACG")
"≤ 0.5"
>>> reported("GUUUCGUUGGCGUAAUGGUAACGCGUCUCCCUCCUAAGGAGACGACUGCGGGUUCGAGUCCCGUUCGGAACG")
0.75
>>> reported("GUUCCGUUGGCGUAAUGGUACCGCGUCUGCCUCCUAAGGAGAAGACUGCGAGUUCGAGUCCCGUACGGAACG")
0.529
>>> reported("GUUCCGUUGGCGUGAUGGUAACGCGUCUCCCUCGUAAGGAGAAGACUGCGGGUUCGAGUCCCGUUAGGAACG")
"≤ 0.5"
>>> reported("GUUGCGUUGGCGUAAUGGUAACGCGUCUCCCUCCUAAGGAGAAGACUGCGGGUUUGAGUCCCGUAGGGAACG")
"≤ 0.5"
>>> reported("GUUCCGUUGGUGUAAUGGUAACGCGUCUCCCUCCUAAGGAGAAGACUGCGGGUUCGUGUCCCGUACGGACCG")
0.512
>>> reported("GUUCCGUUGGUGUAUUGGUAACGCGUCUCCAACCUAAGGAGAAGACUGCGGGUUCGGGUCCCGUACAGAACG")
"≤ 0.5"
